# TEST: Quantitative High-Throughput drug screen in 47 multiple myeloma cell lines against the NCATS MIPE library collection: JIM3_ECACC cell viability assay (AID 1918963; also: nearly all actives have a fitted effect of over 35% in size; also: potency is read from the fitted curve at half-maximal effect)
# RUN_CONDITIONS: JIM3 myeloma viability, CellTiter-Glo ATP, 48 h; series mostly up to 45.8 µM
Results filed as inconclusive are left out. Calls of active or inactive are those of the source. Calls follow the shape of the dose curve; as a rule, active = well fitted cell-killing curve with a large enough effect; inconclusive = small, poorly fitted or top-dose-only effect; inactive = no such curve, though single readings can be large or run the other way.
PROPERTY_MEASURED: Potency

| COMPOUND | PROPERTY_MEASURED | ASSAY_RESULT |
| --- | --- | --- |
| CC(C[N+](C)(C)C)OC(N)=O (stereo not given) | Potency | 0.0083 µM (active) |
| Cc1n[nH]c(C)c1Cc1sc2c(c1C(=O)N1C[C@H](O)CO1)c(=O)n(C)c(=O)n2CC(C)C | Potency | inactive |
| Cc1cccc(-c2[nH]c(C(C)(C)C)nc2-c2ccc3nccnc3c2)n1 | Potency | 2.64 µM (active) |
| Nc1nc2[nH]cc(CCc3ccc(C(=O)N[C@@H](CCC(=O)O)C(=O)O)cc3)c2c(=O)[nH]1 | Potency | 0.833 µM (active) |
| O=c1[nH]c(-c2ccc(C(F)(F)F)cc2)nc2c1CSCC2 | Potency | inactive |
| O=C(O)[C@@H](c1ccc(OCc2ccc3ccccc3n2)cc1)C1CCCC1 | Potency | inactive |
| Clc1ccc(Nc2nnc(Cc3ccncc3)c3ccccc23)cc1 | Potency | 20.9 µM (active) |
| CNC(=O)c1ccc(C)c(-n2c(C)cc(OCc3ccc(F)cc3F)c(Br)c2=O)c1 | Potency | 16.6 µM (active) |
| Clc1cccc(Cl)c1NC1=NCCN1 | Potency | inactive |
| COc1ccccc1[C@H](c1cccc2ccccc12)[C@@](C)(C#N)C(=O)N1CCC(c2cccc(C(F)(F)F)c2)CC1 | Potency | 9.35 µM (active) |

---

# TEST: Quantitative High-Throughput drug screen in 47 multiple myeloma cell lines against the NCATS MIPE library collection: MM1R_ATCC cell viability assay (AID 1918981); also: nearly all actives have a fitted effect of over 35% in size
# RUN_CONDITIONS: MM1R multiple myeloma cells, CellTiter-Glo viability, 48 h; series mostly up to 45.8 µM
# Description: PI: Beverly A. Mock Ph.D. Laboratory of Cancer Biology and Genetics, Center for Cancer Research, National Cancer Institute, National Institute of Health, Bethesda, Maryland […] 5; Detector; 425V; Luminescence; Viewlux PerkinElmer. […] 1. […] Briefly, the corresponding myeloma cell lines were screened in 1,536-well plates with 500 cells, 5-uL per well for inhibition of cell viability (assessed by measuring ATP levels with CellTiterGlo). […]
Results filed as inconclusive are left out. Activity calls are given as the source filed them. Calls come from the whole dose curve; as a rule, active = well fitted cell-killing curve with a large enough effect; inconclusive = small, poorly fitted or top-dose-only effect, or effect the other way; inactive = no such curve, though single readings can be large or run the other way.
Labels: 1 (active), -1 (inactive)

| MOLECULE | CATEGORY_LABEL |
| --- | --- |
| Cc1cccc(-c2[nH]c(C(C)(C)C)nc2-c2ccc3nccnc3c2)n1 | 1 |
| COc1c(Cl)cc2c([nH]c3cnccc32)c1NC(=O)c1cccnc1C | 1 |
| CNC(=O)c1ccc(N2C(=S)N(c3ccc(C#N)c(C(F)(F)F)c3)C(=O)C2(C)C)cc1F | -1 |
| CC(=O)Oc1ccccc1C(=O)O | 1 |
| COc1ccc(C2=N[C@H](c3ccc(Cl)cc3)[C@H](c3ccc(Cl)cc3)N2C(=O)N2CCNC(=O)C2)c(OC(C)C)c1 | 1 |
| Cc1n[nH]c(C)c1Cc1sc2c(c1C(=O)N1C[C@H](O)CO1)c(=O)n(C)c(=O)n2CC(C)C | -1 |
| Cc1c(CN2CCN(C(=O)C(C)C)CC2)sc2c(N3CCOCC3)nc(-c3cnc(N)nc3)nc12 | 1 |
| N[C@@H]1CONC1=O | -1 |
| Cc1c(CCOc2ccc(C(=O)O)cc2)c2cc(Cl)ccc2n1C(c1ccccc1)c1ccccc1 | 1 |
| Cc1ccccc1C(OCCN(C)C)c1ccccc1 (stereo not drawn) | -1 |
| Cc1c(C)c2c(c(C)c1O)CCC(C)(COc1ccc(CC3SC(=O)NC3=O)cc1)O2 (stereo not drawn) | -1 |
| CC1(C)CNc2cc(NC(=O)c3cccnc3NCc3ccncc3)ccc21 | 1 |
| Cc1ccnc(NS(=O)(=O)c2ccc(NC(=O)Nc3ccc(S(=O)(=O)Nc4nccc(C)n4)cc3)cc2)n1 | -1 |
| Cc1cc(-c2ccc(CC(=O)Nc3ccc(-c4cccnc4)cc3)cc2)ccn1 | -1 |
| COc1ccc(-c2oc3cc(OC)ccc3c2C(=O)c2ccc(C#N)cc2)cc1 | -1 |
| O=NN(CCCl)C(=O)NCCCl | -1 |
| COCCNCCCn1c(C(=O)CF)c(-c2ccc(C)cc2)c2c(N)ncnc21 | 1 |
| NC[C@H](O)c1ccc(O)c(O)c1 | 1 |
| NNCCc1ccccc1 | 1 |
| Oc1cccc(-c2nc(N3CCOCC3)c3oc4ncccc4c3n2)c1 | 1 |
| OCCC#Cc1nc(-c2ccc(F)cc2)c(-c2ccncc2)n1CCCc1ccccc1 | -1 |
| CS(=O)(=O)c1cccc(CNc2nc(Nc3ccc4c(c3)CCC(=O)N4)ncc2C(F)(F)F)c1 | 1 |
| CCCC(CCC)C(=O)O | -1 |
| OC[C@H](Cc1ccccc1)Nc1nc(Oc2ccc3c(c2)CCC3)nc2c1ncn2Cc1ccc(-c2ccccc2)cc1 | -1 |
| CCN(c1ccccc1)c1cc(NC)[n+](C)c(C)n1 | 1 |
| Nc1cccc(S(=O)(=O)N2CCCN(S(=O)(=O)c3ccc4c(c3)OCCO4)CC2)c1 | 1 |
| CCCCNc1cc(C(=O)O)cc(S(N)(=O)=O)c1Oc1ccccc1 | -1 |
| O=c1n(CCCN2CCN(c3cccc(Cl)c3)CC2)nc2ccccn12 | -1 |
| CC(C)(C)OC(=O)CN(Cc1ccc(Cl)cc1)Cc1ccc([N+](=O)[O-])s1 | -1 |
| O=S(=O)(N=Cc1c(O)ccc2ccccc12)c1cccs1 | -1 |
| O=C(Nc1nc2ccccc2n1CCN1CCOCC1)c1cccc([N+](=O)[O-])c1 | 1 |
| CCCc1nc2c(C)cc(-c3nc4ccccc4n3C)cc2n1Cc1ccc(-c2ccccc2C(=O)O)cc1 | -1 |
| CS(=O)(=O)Oc1ccc2c(NC(N)=O)c(C(=O)c3ccc(Cl)cc3Cl)oc2c1 | -1 |
| CC(C=CC1=C(C)CCCC1(C)C)=CC=CC(C)=CC(=O)O | 1 |
| CCC(=O)N[C@H]1CC[C@H](C(=O)N(C)c2ccc(-c3nc4ccccc4o3)cc2)C1 | 1 |
| CCn1cc(C(=O)O)c(=O)c2cc(F)c(N3CCNC(C)C3)c(F)c21 (stereo not drawn) | -1 |
| CCN(CC)CCCC(C)Nc1ccnc2cc(Cl)ccc12 (stereo not drawn) | -1 |
| C[C@]1(c2nc3c(C(N)=O)cccc3[nH]2)CCCN1 | -1 |
| CCOc1cc(C=C2C(=O)N(c3ccccc3)N=C2C)cc(Cl)c1OCC(=O)OC | 1 |
| O=C(Nc1ccc(F)c(C(F)(F)F)c1)Nc1nnc(-c2ccncc2)s1 | 1 |
| CC(C)(N)C(=O)N[C@H](COCc1ccccc1)C(=O)N1CCC2(CC1)CN(S(C)(=O)=O)c1ccccc12 | 1 |
| O=C(O)COCCN1CCN(C(c2ccccc2)c2ccc(Cl)cc2)CC1 (stereo not drawn) | -1 |
| OCCn1cc(-c2cnc3nnn(Cc4ccc5ncccc5c4)c3n2)cn1 | 1 |

Measured values drawn from PubChem BioAssay (NCATS) for this set.
